This collection of values is drawn from patent US11453689B2.

- Assay Info: In vivo pharmacokinetics in male C57BL/6 mice (IV and PO)
- Details: male, C57BL/6, plasma; mouse, IV, 1 mg/kg
- Description: Example 26: In Vivo Assessment of the Pharmacokinetics in Mice and Rats […] Male C57BL/6 mice (25-30 g) from Charles River Labs were acclimatized for a minimum of 5 days prior to dosing. Body weights will be recorded on the day of dosing. Animals dosed p.o. were deprived of food overnight and fed ˜2 h following dosing. Formulations were administered intravenously (i.v.) via the tail vein or orally (p.o.) by gavage with disposable feeding needles. Serial blood samples were collected via tail snip. […]
Endpoint Label: C0 (ng/mL)
Please give a number only; it is taken to be in ng/mL.

{"Smiles Data": "[2H]C([2H])(c1c[nH]c2cccc(O)c12)[C@H]1CCCN1C([2H])([2H])[2H]", "C0 (ng/mL)": 2570}

Requested read-out: C0. Entry: `[2H]C([2H])(c1c[nH]c2cccc(OC)c12)[C@H]1CCCN1C([2H])([2H])[2H]` 1290

Requested read-out: C0. Entry: `[2H]C([2H])([2H])N1CCC[C@@H]1Cc1c[nH]c2cccc(O)c12` 3590

---

Each record here notes measured half-life at 2 μM.
- Assay Info: Mouse liver microsomes stability with NADPH
- Details: male, mouse, microsomes
- Procedure: The objective of this study was to estimate in vitro metabolic stability of exemplary compounds in pooled human, male rat and male mouse liver microsomes. The concentrations of exemplary compounds in reaction systems were evaluated by LC-MS/MS for estimating the stability in pooled human, male rat and male mouse liver microsomes. The in vitro intrinsic clearances of test compounds were determined as well. […]
Please give a number only; it is taken to be in h.

Sample records with half-life at 2 μM:
{"Smiles Data": "[2H]C([2H])(c1c[nH]c2cccc(O)c12)[C@H]1CCCN1", "Numeric Value": 1.24}
{"Smiles Data": "[2H]C([2H])([2H])N1CCC[C@@H]1Cc1c[nH]c2cccc(F)c12", "Numeric Value": 1.05}
{"Smiles Data": "[2H]C([2H])([2H])N1CCC[C@@H]1Cc1c[nH]c2cccc(OC(=O)CCCCCCC/C=C\\C/C=C\\CCCCC)c12", "Numeric Value": 0.288}
{"Smiles Data": "[2H]C([2H])(c1c[nH]c2cccc(OC(=O)CCCCCCC/C=C\\C/C=C\\CCCCC)c12)[C@H]1CCCN1C([2H])([2H])[2H]", "Numeric Value": 0.347}
{"Smiles Data": "[2H]C([2H])([2H])N1CCC[C@@H]1Cc1c[nH]c2cccc(O)c12", "Numeric Value": 1.43}

Requested read-out: half-life at 2 μM. Entry: `[2H]C([2H])(c1c[nH]c2cccc(F)c12)[C@H]1CCCN1C([2H])([2H])[2H]` 0.895

Requested read-out: half-life at 2 μM. Entry: `[2H]C([2H])(c1c[nH]c2cccc(O)c12)[C@H]1CCCN1C([2H])([2H])[2H]` 1.18

Requested read-out: half-life at 2 μM. Entry: `[2H]C([2H])(c1c[nH]c2cccc(OC)c12)[C@H]1CCCN1C([2H])([2H])[2H]` 1.6

---

- Assay Info: Rat liver microsomes stability with NADPH
- Details: rat liver microsomes, with NADPH, 2 μM
Each record here notes measured Remaining Percentage (%) after 60 min, Rat.
Please give a number only; it is taken to be in %.

{"Compound": "[2H]C([2H])(c1c[nH]c2cccc(O)c12)[C@H]1CCCN1", "Numeric Value": 34.11}
{"Compound": "[2H]C([2H])(c1c[nH]c2cccc(OC)c12)[C@H]1CCCN1C([2H])([2H])[2H]", "Numeric Value": 3.34}
{"Compound": "[2H]C([2H])(c1c[nH]c2cccc(F)c12)[C@H]1CCCN1C([2H])([2H])[2H]", "Numeric Value": 24.82}
{"Compound": "[2H]C([2H])([2H])N1CCC[C@@H]1Cc1c[nH]c2cccc(OC(=O)CCCCCCC/C=C\\C/C=C\\CCCCC)c12", "Numeric Value": 41.86}
{"Compound": "CN(C)CCc1c[nH]c2cccc(O)c12 [Psilocin, 4-hydroxy-N,N-dimethyltryptamine, reference compound]", "Numeric Value": 62.68}

Requested read-out: Remaining Percentage (%) after 60 min, Rat. Entry: `[2H]C([2H])([2H])N1CCC[C@@H]1Cc1c[nH]c2cccc(F)c12` 46.51

Requested read-out: Remaining Percentage (%) after 60 min, Rat. Entry: `[2H]C([2H])(c1c[nH]c2cccc(OC(=O)CCCCCCC/C=C\C/C=C\CCCCC)c12)[C@H]1CCCN1C([2H])([2H])[2H]` 42.38

Requested read-out: Remaining Percentage (%) after 60 min, Rat. Entry: `[2H]C([2H])(c1c[nH]c2cccc(O)c12)[C@H]1CCCN1C([2H])([2H])[2H]` 32.00

Requested read-out: Remaining Percentage (%) after 60 min, Rat. Entry: `[2H]C([2H])([2H])N1CCC[C@@H]1Cc1c[nH]c2cccc(O)c12` 33.13

---

- Assay Info: In vivo pharmacokinetics in male C57BL/6 mice (IV and PO)
- Details: male, C57BL/6, plasma; mouse, IV, 5 mg/kg; read-out: Apparent t1/2 (converted)
- Protocol: Example 26: In Vivo Assessment of the Pharmacokinetics in Mice and Rats […] Male C57BL/6 mice (25-30 g) from Charles River Labs were acclimatized for a minimum of 5 days prior to dosing. Body weights will be recorded on the day of dosing. Animals dosed p.o. were deprived of food overnight and fed ˜2 h following dosing. Formulations were administered intravenously (i.v.) via the tail vein or orally (p.o.) by gavage with disposable feeding needles. Serial blood samples were collected via tail snip. […]
Endpoint Label: half-life (h)
Please give a number only; it is taken to be in h.

Requested read-out: half-life. Entry: `[2H]C([2H])([2H])N1CCC[C@@H]1Cc1c[nH]c2cccc(O)c12` 12.7

---

- Experimental System: human 5-HT2A (h5-HT2A) receptor (Homo sapiens (Human), UniProt P28223)
- Assay Info: FLIPR calcium assay, human 5-HT2A receptor, agonist mode
- Assay type: cell-based
- Details: FLIPR, agonist mode; read-out: h5-HT2A EC50
pEC50: −log10 of the molar value.
Endpoint Label: pEC50

Requested read-out: pEC50. Entry: `[2H]C([2H])(c1c[nH]c2cccc(OC(=O)CCCCCCC/C=C\C/C=C\CCCCC)c12)[C@H]1CCCN1C([2H])([2H])[2H]` 5.00 to 6.00

---

Each record here notes measured clearance.
- Assay Info: In vivo pharmacokinetics in male SD rats (IV and PO)
- Details: male, SD, plasma; rat, IV, 0.3 mg/kg
Please give a number only; it is taken to be in mL/min/kg.

Sample records with clearance:
{"Smiles Data": "[2H]C([2H])(c1c[nH]c2cccc(O)c12)[C@H]1CCCN1C([2H])([2H])[2H]", "Unit": "mL/min/kg", "Numeric Value": 183}
{"Smiles Data": "[2H]C([2H])(c1c[nH]c2cccc(OC)c12)[C@H]1CCCN1C([2H])([2H])[2H]", "Unit": "mL/min/kg", "Numeric Value": 192}

Kindly review the next molecule as well.
Requested read-out: clearance. Entry: `[2H]C([2H])([2H])N1CCC[C@@H]1Cc1c[nH]c2cccc(O)c12` 177

---

- Assay Info: In vivo pharmacokinetics in male C57BL/6 mice (IV and PO)
- Details: male, C57BL/6, plasma; mouse, IV, 5 mg/kg
Endpoint Label: C0 (ng/mL)
Please give a number only; it is taken to be in ng/mL.

Requested read-out: C0. Entry: `[2H]C([2H])([2H])N1CCC[C@@H]1Cc1c[nH]c2cccc(O)c12` 4780

---

- Experimental System: human 5-HT2A receptor (Homo sapiens (Human), UniProt P28223)
- Assay Info: Radioligand ([3H]-ketanserin) binding assay on human 5-HT2A receptor
- Experimental: i. Prepare the assay buffer following the table below; ii. Preparation of 8 doses of reference and exemplary test compounds starting from 10 mM stock solution as requested by 5-fold serial dilutions with 100%; iii. […] a. Add 50 μl/well of 0.5% (v/v) PEI to UniFilter-96 GF/B plates. Seal the plates and incubate at 4° C. for 3 hrs; b. After incubation, wash the plates 3 times with ice-cold wash buffer (50 mM Tris, pH7.4); iv. […] x. Read the plate by using a Microbeta2 microplate counter. […]
Endpoint Label: IC50

Sample records with IC50:
{"Compound": "[2H]C([2H])([2H])N1CCC[C@@H]1Cc1c[nH]c2cccc(F)c12 [Compound I-40]", "Endpoint Label": "IC50", "Result": "< 0.5 µM"}
{"Compound": "[2H]C([2H])(c1c[nH]c2cccc(O)c12)[C@H]1CCCN1 [Compound I-50]", "Endpoint Label": "IC50", "Result": "0.5 to 5 µM"}
{"Compound": "[2H]C([2H])(c1c[nH]c2cccc(F)c12)[C@H]1CCCN1 [Compound I-41]", "Endpoint Label": "IC50", "Result": "0.5 to 5 µM"}
{"Compound": "[2H]C([2H])([2H])N1CCC[C@H]1Cc1c[nH]c2cccc(O)c12 [Compound I-53]", "Endpoint Label": "IC50", "Result": "> 5 µM"}
{"Compound": "[2H]C([2H])(c1c[nH]c2cccc(F)c12)[C@@H]1CCCN1C([2H])([2H])[2H] [Compound I-42]", "Endpoint Label": "IC50", "Result": "> 5 µM"}
{"Compound": "[2H]C([2H])([2H])N1CCC[C@@H]1Cc1c[nH]c2cccc(O)c12 [Compound I-2]", "Endpoint Label": "IC50", "Result": "< 0.5 µM"}

Requested read-out: IC50. Entry: [2H]C([2H])(c1c[nH]c2cccc(F)c12)[C@H]1CCCN1C([2H])([2H])[2H] [Compound I-37] 0.5 to 5 µM

Requested read-out: IC50. Entry: [2H]C([2H])(c1c[nH]c2cccc(OC)c12)[C@H]1CCCN1C([2H])([2H])[2H] [Compound I-39] 0.5 to 5 µM

Requested read-out: IC50. Entry: [2H]C([2H])(c1c[nH]c2cccc(O)c12)[C@H]1CCCN1C([2H])([2H])[2H] [Compound I-44] < 0.5 µM

Requested read-out: IC50. Entry: [2H]C([2H])(c1c[nH]c2cccc(Cl)c12)[C@H]1CCCN1C([2H])([2H])[2H] [Compound I-38] < 0.5 µM
